TARGET OR TEST SYSTEM: Human Factor Xa (human, UniProt P00742 41-488, limits assumed)
Sequence (P00742 41-488 limits assumed): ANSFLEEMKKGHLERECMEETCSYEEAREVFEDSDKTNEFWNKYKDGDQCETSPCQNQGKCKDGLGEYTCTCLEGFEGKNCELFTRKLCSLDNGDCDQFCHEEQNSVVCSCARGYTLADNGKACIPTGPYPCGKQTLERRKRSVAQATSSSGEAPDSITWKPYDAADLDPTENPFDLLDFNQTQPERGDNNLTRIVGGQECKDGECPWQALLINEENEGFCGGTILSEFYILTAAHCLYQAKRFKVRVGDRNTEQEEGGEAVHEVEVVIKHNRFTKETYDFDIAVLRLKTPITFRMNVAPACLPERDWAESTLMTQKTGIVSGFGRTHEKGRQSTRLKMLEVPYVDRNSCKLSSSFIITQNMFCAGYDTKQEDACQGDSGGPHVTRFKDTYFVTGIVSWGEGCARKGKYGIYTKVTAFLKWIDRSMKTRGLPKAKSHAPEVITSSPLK
TEST DETAILS: cell-based or functional assay
MEASURED METRIC: FXa-inhibiting activity

Some solved cases for reference:
INSERT INTO assay_data (binder, measured_metric, assay_value) VALUES
  ('AVLPQEEEGSGMAACNLPIVQGPCRAFIKLWAFDAVKGKCVLFPYGG (other) [polypeptide R11Q/Q19K/Y46D]', 'FXa-inhibiting activity', '~20 times that of polypeptide AN68'),
  ('AACNLPIVRGPCRAFIKLWAFDAVKGKCVLFPYGGCQGNGNKFESEK (other) [polypeptide Q19K/Y46E]', 'FXa-inhibiting activity', '~10 times that of polypeptide AN68'),
  ('AVLPQEEEGSGMAACNLPIVEGPCRAFIKLWAFDAVKGKCVLFPYGG (other) [polypeptide R11E/Q19K/Y46E]', 'FXa-inhibiting activity', '~13 times that of polypeptide AN68');

Pending binder:
Which FXa-inhibiting activity is reported for this binder? AVLPQEEEGSGMAACNLPIVDGPCRAFIKLWAFDAVKGKCVLFPYGG (other) [polypeptide R11D/Q19K/Y46D]
~5 times that of polypeptide AN68
